# Tested on: Candida albican ATCC 90873
# ASSAY_PROTOCOL: In vitro antifungal activity (MIC80), Candida albican ATCC 90873
# Assay type: cell-based
# EXPERIMENTAL_PARAMETERS: Candida, ATCC90873; Table 2, ATCC 90873; read-out: Minimal inhibitory concentration (MIC80)

| COMPOUND | READING_UNIT | MIC80 |
| --- | --- | --- |
| C[C@@H](N1CCN(c2cccc(N(C)CCc3cccs3)n2)CC1)[C@](O)(Cn1cncn1)c1ccc(F)cc1F [Example 28] | µg/mL | 0.25 |
| C[C@@H](N1CCN(c2nc3ccc(Cl)cc3o2)CC1)[C@](O)(Cn1cncn1)c1ccc(F)cc1F [Example 6] | µg/mL | 0.125 |
| C[C@@H](N1CCN(c2nc3ccccc3s2)CC1)[C@](O)(Cn1cncn1)c1ccc(F)cc1F [Example 2] | µg/mL | 0.125 |
| C[C@@H](N1CCN(c2cccc(OCCN3CCOCC3)n2)CC1)[C@](O)(Cn1cncn1)c1ccc(F)cc1F [Example 26] | µg/mL | 0.25 |

---

# Tested on: Candida albican ATCC 96901
# ASSAY_PROTOCOL: In vitro antifungal activity (MIC80), Candida albican ATCC 96901
# Assay type: cell-based
# EXPERIMENTAL_PARAMETERS: Candida, ATCC96901; Table 2, ATCC 96901; read-out: Minimal inhibitory concentration (MIC80)
METRIC_NAME: MIC80 (µg/mL)

| COMPOUND | READING_UNIT | RELATIONAL_OPERATOR | OBSERVED_MEASUREMENT |
| --- | --- | --- | --- |
| COc1ccc(C(=O)c2cnc3sc(C(=O)N4CCN(C(C)C(O)(Cn5cncn5)c5ccc(F)cc5F)CC4)cn23)cc1 (stereo not drawn) | µg/mL | = | 8 |
| CCCCOc1cccc(N2CCN([C@H](C)[C@](O)(Cn3cncn3)c3ccc(F)cc3F)CC2)n1 | µg/mL | > | 128 |
| C[C@@H](N1CCN(c2cccc(OC3CCCC3)n2)CC1)[C@](O)(Cn1cncn1)c1ccc(F)cc1F | µg/mL | > | 128 |
| CC(N1CCN(C(=O)c2nc(-c3ccc(Cl)cc3)no2)CC1)C(O)(Cn1cncn1)c1ccc(F)cc1F (stereo not drawn) | µg/mL | > | 128 |
| C[C@@H](N1CCN(c2ccc(OCc3cccs3)nc2)CC1)[C@](O)(Cn1cncn1)c1ccc(F)cc1F | µg/mL | > | 128 |
| C[C@@H](N1CCN(c2ccc3ccccc3n2)CC1)[C@](O)(Cn1cncn1)c1ccc(F)cc1F | µg/mL | = | 0.5 |
| C[C@@H](N1CCCN(c2ccccn2)CC1)[C@](O)(Cn1cncn1)c1ccc(F)cc1F | µg/mL | = | 32 |
| C[C@@H](N1CCN(c2cccc(OCC3CC3)n2)CC1)[C@](O)(Cn1cncn1)c1ccc(F)cc1F | µg/mL | > | 128 |
| CC(C)Oc1cccc(N2CCN([C@H](C)[C@](O)(Cn3cncn3)c3ccc(F)cc3F)CC2)n1 | µg/mL | > | 128 |
| C[C@@H](N1CCN(Cc2ccco2)CC1)[C@](O)(Cn1cncn1)c1ccc(F)cc1F | µg/mL | = | 64 |
| C[C@@H](N1CCN(c2ccc(C#N)nc2)CC1)[C@](O)(Cn1cncn1)c1ccc(F)cc1F | µg/mL | = | 8 |
| CC(C)Oc1ccc(N2CCN([C@H](C)[C@](O)(Cn3cncn3)c3ccc(F)cc3F)CC2)cn1 | µg/mL | = | 64 |
| COc1ccc(-c2noc(C(=O)N3CCN([C@H](C)[C@](O)(Cn4cncn4)c4ccc(F)cc4F)CC3)n2)cc1 | µg/mL | > | 128 |
| C[C@@H](N1CCN(c2cccc(N(C)CCCN3CCOCC3)n2)CC1)[C@](O)(Cn1cncn1)c1ccc(F)cc1F | µg/mL | = | 16 |
| C[C@@H](N1CCN(Cc2ccncc2)CC1)[C@](O)(Cn1cncn1)c1ccc(F)cc1F | µg/mL | = | 64 |

---

# Test system: Candida albican ATCC 62342
# ASSAY_PROTOCOL: In vitro antifungal activity (MIC80), Candida albican ATCC 62342
# Assay type: cell-based
# EXPERIMENTAL_PARAMETERS: Candida, ATCC62342; Table 2, 62342; read-out: Minimal inhibitory concentration (MIC80)
# Method: In vitro antifungal activities of the inventive antifungal compounds were evaluated using test strains including Candida albican (ATCC 90873, 204276, 62342, 64124, 64550, 96901, MYA-573, MYA-574, MYA-575, MYA-576, MYA-1003) and Aspergillus fumigatus (ATCC 16424). […] Minimal inhibitory concentration (MIC80) of each compound was determined as the lowest concentration of the test compounds required to reduce growth by 80% relative to a control strain not treated. […]
Labelling field: enter class 1 if recorded MIC80 is less than 1 µg/mL. Enter class 0 if it equals or exceeds that cut-off.

| MOLECULE | QUALITATIVE_LABEL |
| --- | --- |
| C[C@@H](N1CCN(c2nc3cc(Cl)ccc3o2)CC1)[C@](O)(Cn1cncn1)c1ccc(F)cc1F [Example 5] | class 1 |
| CC(N1CCCN(c2ccc(C#N)nc2)CC1)C(O)(Cn1cncn1)c1ccc(F)cc1F (stereo not shown) [Example 39] | class 0 |
| C[C@@H](N1CCCN(c2ccc3ccccc3n2)CC1)[C@](O)(Cn1cncn1)c1ccc(F)cc1F [Example 40] | class 1 |
| C[C@@H](N1CCN(c2ccc3ccccc3n2)CC1)[C@](O)(Cn1cncn1)c1ccc(F)cc1F [Example 19] | class 1 |
| C[C@@H](N1CCN(c2cccc(OCC3CC3)n2)CC1)[C@](O)(Cn1cncn1)c1ccc(F)cc1F [Example 21] | class 0 |

---

# System: Candida albican ATCC 90873
# ASSAY_PROTOCOL: In vitro antifungal activity (MIC80), Candida albican ATCC 90873
# Format: cell-based
# EXPERIMENTAL_PARAMETERS: Candida, ATCC90873; Table 2, ATCC 90873; read-out: Minimal inhibitory concentration (MIC80)
compounds and their reported MIC80

| MOLECULE | READING_UNIT | MIC80 |
| --- | --- | --- |
| C[C@@H](N1CCN(c2ccc(OCc3cccs3)nc2)CC1)[C@](O)(Cn1cncn1)c1ccc(F)cc1F | µg/mL | 0.125 |
| C[C@@H](N1CCN(c2nc3ccccc3n2C)CC1)[C@](O)(Cn1cncn1)c1ccc(F)cc1F | µg/mL | 0.125 |
| C[C@@H](N1CCN(c2nc3ccccc3o2)CC1)[C@](O)(Cn1cncn1)c1ccc(F)cc1F | µg/mL | 0.125 |
| C[C@@H](N1CCN(c2ccc(C#N)nc2)CC1)[C@](O)(Cn1cncn1)c1ccc(F)cc1F | µg/mL | 0.125 |
| C[C@@H](N1CCN(c2nc3cc(Cl)ccc3o2)CC1)[C@](O)(Cn1cncn1)c1ccc(F)cc1F | µg/mL | 0.125 |
| Cc1ccc(-c2nsc(C(=O)N3CCN([C@H](C)[C@](O)(Cn4cncn4)c4ccc(F)cc4F)CC3)n2)cc1 | µg/mL | 0.25 |

---

Reported values of MIC80 for individual entries
# Test system: Candida albican ATCC 62342
# ASSAY_PROTOCOL: In vitro antifungal activity (MIC80), Candida albican ATCC 62342
# Assay type: cell-based
# EXPERIMENTAL_PARAMETERS: Candida, ATCC62342; Table 2, 62342; read-out: Minimal inhibitory concentration (MIC80)

| COMPOUND | RELATIONAL_OPERATOR | MIC80 [µg/mL] |
| --- | --- | --- |
| C[C@@H](N1CCN(c2cccc(OCCN3CCOCC3)n2)CC1)[C@](O)(Cn1cncn1)c1ccc(F)cc1F [Example 26] | = | 4 |
| CCCCOc1ccc(N2CCN([C@H](C)[C@](O)(Cn3cncn3)c3ccc(F)cc3F)CC2)cn1 [Example 32] | = | 1 |
| C[C@@H](N1CCN(C(=O)c2nc(-c3ccc(F)cc3)ns2)CC1)[C@](O)(Cn1cncn1)c1ccc(F)cc1F [Example 52] | = | 4 |
| C[C@@H](N1CCN(c2cccc(OC3CCCC3)n2)CC1)[C@](O)(Cn1cncn1)c1ccc(F)cc1F [Example 22] | = | 128 |
| C[C@@H](N1CCCN(c2nc3ccccc3o2)CC1)[C@](O)(Cn1cncn1)c1ccc(F)cc1F [Example 15] | = | 0.25 |
| CCCCOc1cccc(N2CCN([C@H](C)[C@](O)(Cn3cncn3)c3ccc(F)cc3F)CC2)n1 [Example 23] | > | 128 |
| C[C@@H](N1CCN(c2nc3ccccc3s2)CC1)[C@](O)(Cn1cncn1)c1ccc(F)cc1F [Example 2] | = | 0.5 |

FYI, the data here is from patent US20100144712A1.
